I'd appreciate it if you could supply pIC50 values for the items below.
# tested.system: Complement factor D (Homo sapiens)
# Sequence (P00746 whole entry): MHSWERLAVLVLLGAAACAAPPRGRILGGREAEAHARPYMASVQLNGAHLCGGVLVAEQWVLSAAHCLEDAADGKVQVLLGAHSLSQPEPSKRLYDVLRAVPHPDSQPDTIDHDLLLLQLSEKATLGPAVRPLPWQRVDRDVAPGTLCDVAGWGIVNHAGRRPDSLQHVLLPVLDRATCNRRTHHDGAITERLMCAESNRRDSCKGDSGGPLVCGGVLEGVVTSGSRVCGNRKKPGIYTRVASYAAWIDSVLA
pIC50: −log10 of the molar value.

| record.smiles | result.value |
| --- | --- |
| NC(=O)c1nn(CC(=O)N2C[C@H](F)C[C@H]2C(=O)Nc2cccc(-c3ccc4[nH]cnc4c3Cl)c2F)c2ccc(Br)cc12 | > 6.00 |

Answer for every listed entry: what is its pIC50? The entries follow.
1. NC(=O)c1cccc(CC(=O)N2C[C@H](F)C[C@H]2C(=O)Nc2cccc(-c3ccccc3Cl)c2F)n1
2. NC(=O)c1nn(CC(=O)N2C[C@H](F)C[C@H]2C(=O)Nc2cccc(-c3nc4cccc(Cl)c4[nH]3)c2F)c2ccccc12

> 6.00
> 6.00
